- EXPERIMENT_SUMMARY: qHTS assay to identify small molecule agonists of the androgen receptor (AR) signaling pathway in the presence of an antagonist - cell viability counter screen (AID 1259379); also: nearly all actives have a fitted effect of over 25% in size
- RUN_CONDITIONS: MDA-kb2 viability, CellTiter-Fluor, 16 h; series mostly up to 92.4 µM
Inconclusive results are not listed. The source made the active and inactive calls. Calls follow the shape of the dose curve; as a rule, active = well fitted cell-killing curve with a large enough effect in the repeat runs; inconclusive = weak or mixed curves, or effect the other way; inactive = flat fitted curve, though single readings scatter.
# valid calls are Y for active, N for inactive; nothing else

Could you check what this test reported for CC1=CC=C(C(C)C)CC1 ?
N

Could you check what this test reported for C=C(C)C(=O)OCC ?
N

Could you check what this test reported for CCCCCCCC/C=C\CCCCCCCC(=O)OCC ?
N

Could you check what this test reported for CC(C)Cc1ccc(C(C)C(=O)OCc2ccccn2)cc1 (configuration not stated) ?
N

Could you check what this test reported for CCOC(=O)C1=C[C@]2(CC)CCCN3CCc4c(n1c1ccccc41)[C@@H]32 ?
N

Could you check what this test reported for O=S(c1cc(Cl)cc(Cl)c1O)c1cc(Cl)cc(Cl)c1O ?
N

Could you check what this test reported for Nc1ccc(N)c2c1C(=O)c1ccccc1C2=O ?
Y

* * *

- EXPERIMENT_SUMMARY: Caspase-3/7 induction in CHO-K1 cells by small molecules, qHTS cell viability counter screen (AID 1346979); also: nearly all actives have a fitted effect of over 35% in size
- RUN_CONDITIONS: CellTiter-Fluor fluorescence, 17 h; series mostly up to 92.4 µM
Results filed as inconclusive are left out. Calls of active or inactive are those of the source. Calls come from the whole dose curve; as a rule, active = well fitted cell-killing curve with a large enough effect in the repeat runs; inconclusive = weak or mixed curves, or effect the other way; inactive = no such curve, though single readings can be large or run the other way.
# valid calls are active, inactive; nothing else

Could you check what this test reported for CCCCO ?
inactive

Could you check what this test reported for C=CC(=O)OCCOCCOC(=O)C=C ?
active

Could you check what this test reported for CCOC(=O)C(=O)CCc1ccccc1 ?
inactive

Could you check what this test reported for O=C(NCCO[N+](=O)[O-])c1cccnc1 ?
inactive

Could you check what this test reported for C1CCCNCCC1 ?
inactive

Could you check what this test reported for COc1ccc(-c2nc3ccc(C4=NNC(=O)CC4C)cc3[nH]2)cc1 (stereo not drawn) ?
active

Could you check what this test reported for CN(C)c1ccc(CCO)cc1 ?
inactive

Could you check what this test reported for O=C(O)c1ccc(-n2nc(-c3ccccc3O)nc2-c2ccccc2O)cc1 ?
active

Could you check what this test reported for C=C1[C@H]2CC[C@@H]3[C@H]2C(C)(C)CCC[C@]13C ?
inactive

Could you check what this test reported for C[N+]1(C)CCC(OC(=O)C(O)(c2ccccc2)C2CCCC2)C1 (stereo not drawn) ?
inactive

Could you check what this test reported for NS(=O)(=O)c1ccc(N2CCCCS2(=O)=O)cc1 ?
inactive

Could you check what this test reported for COc1cc2c(cc1OC)C(C(C(=O)N(CCc1ccc(OC)c(OC)c1OC)CCc1ccc(OC)c(OC)c1OC)c1ccccc1)=NCC2 (stereo not drawn) ?
active

Could you check what this test reported for Cc1cc(C(=O)O)ccc1[N+](=O)[O-] ?
inactive

* * *

- TARGET_DESC: Cytochrome P450 2C19 (Homo sapiens)
- EXPERIMENT_SUMMARY: Cytochrome P450 Family 2 Subfamily C Member 19 (CYP2C19) small molecule antagonists: luciferase reporter qHTS assay (AID 1671197); also: nearly all actives have a fitted effect of over 65% in size
- RUN_CONDITIONS: P450-Glo CYP2C19 enzyme, luciferin luminescence, 1 h; series mostly up to 52.9 µM
Inconclusive results are not listed. Active and inactive are the calls of the source. The call rests on the fitted dose curve; in most records, active means well fitted inhibition curve with a large enough effect in the repeat runs; inconclusive means weak or mixed curves; inactive means no such curve, though single readings can be large or run the other way.
# valid calls are active, inactive; nothing else

Could you check what this test reported for Cc1[nH]c(C)c(Cl)c(=O)c1Cl ?
inactive

Could you check what this test reported for CCCCc1ncc(/C=C(\Cc2cccs2)C(=O)O)n1Cc1ccc(C(=O)O)cc1 ?
inactive

Could you check what this test reported for CCC(CC)Nc1ccc(C)c(C)c1 ?
active

Could you check what this test reported for O=[N+]([O-])c1ccc(NCCO)c(OCCO)c1 ?
inactive

Could you check what this test reported for Cc1cccc(C)c1NC(=O)CN(CC(=O)O)CC(=O)O ?
inactive

Could you check what this test reported for CC(C)=CCC/C(C)=C/CC/C(C)=C/CO ?
active

Could you check what this test reported for COc1cc2nc(Cl)nc(N)c2cc1OC ?
inactive

Could you check what this test reported for CCOC(=O)C1=C[C@]2(CC)CCCN3CCc4c(n1c1ccccc41)[C@@H]32 ?
inactive

Could you check what this test reported for CC1=CC[C@H](C(C)C)C=C1 ?
active

Could you check what this test reported for O=[N+]([O-])c1cccc(S(=O)(=O)O)c1 ?
active

Could you check what this test reported for CC(=O)[O][Al][O]C(C)=O ?
inactive

Could you check what this test reported for CCOC(=O)c1cccnc1 ?
inactive

Could you check what this test reported for COC(C)(C)CCO ?
inactive

Could you check what this test reported for CCCCC ?
inactive

Could you check what this test reported for COC(C)OC ?
inactive

* * *

- EXPERIMENT_SUMMARY: A CellTox Green Cytotoxicity Assay to monitor cytotoxicity in HepG2 cells - 8 hour (AID 1224890); also: % is scaled to controls: 0 for no effect and ±100 for the full control effect; nearly all actives have a fitted effect of over 45% in size
- RUN_CONDITIONS: CellTox Green fluorescence; series mostly up to 76.8 µM
Records with an inconclusive call do not appear. Calls of active or inactive are those of the source. The call rests on the fitted dose curve; in most records, active means well fitted activation curve with a large enough effect in the repeat runs; inconclusive means weak or mixed curves; inactive means flat fitted curve, though single readings scatter.
RESULT_TYPE: cytotoxicity increase

{"columns": ["COMPOUND", "cytotoxicity increase"],
 "data": [
  ["CC(C)(C)OCC1CO1 (stereo unspecified)", "inactive"],
  ["CC(CSC(=O)c1ccccc1)C(=O)N1C[C@@H](Sc2ccccc2)C[C@H]1C(=O)O (stereo partly specified)", "-3.03% [at 15.8 µM] (inactive)"],
  ["CC[N+]1(CC)CCC(=C(c2ccccc2)c2ccccc2)C1C (stereo unspecified)", "inactive"],
  ["O=C(OCCc1ccccc1)c1ccccc1", "inactive"],
  ["NCCCN1CCOCC1", "inactive"]
]}

Need cytotoxicity increase of CC(C)(C)Cl , thanks.
inactive

Need cytotoxicity increase of Nc1cc(C(=O)O)c(O)c(S(=O)(=O)O)c1 , thanks.
inactive

Need cytotoxicity increase of Nc1ccccc1S(=O)(=O)c1ccccc1 , thanks.
inactive

* * *

- EXPERIMENT_SUMMARY: qHTS assay to identify small molecule agonists of the farnesoid-X-receptor (FXR) signaling pathway - cell viability counter screen (AID 743218); also: nearly all actives have a fitted effect of over 45% in size
- RUN_CONDITIONS: FXR-bla HEK293T viability, CellTiter-Glo luminescence, 16 h; series mostly up to 62.6 µM
Records with an inconclusive call do not appear. Calls of active or inactive are those of the source. Calls come from the whole dose curve; as a rule, active = well fitted cell-killing curve with a large enough effect in the repeat runs; inconclusive = weak or mixed curves, or effect the other way; inactive = no such curve, though single readings can be large or run the other way.
# valid calls are label 1 = active, label 0 = inactive; nothing else

Could you check what this test reported for CCOCC(O)COc1ccc(NC(=O)CC[S+](C)C)cc1 (centres undefined) ?
label 0

Could you check what this test reported for c1cc(CCCc2ccncc2)ccn1 ?
label 0

Could you check what this test reported for Nc1cccc(S(=O)(=O)c2cccc(N)c2)c1 ?
label 0

Could you check what this test reported for Nc1c(CC(=O)O)cccc1C(=O)c1ccc(Br)cc1 ?
label 0

Could you check what this test reported for Nc1ccccc1S(=O)(=O)c1ccccc1 ?
label 0

Could you check what this test reported for C=CCOC(=O)CCC1CCCCC1 ?
label 0

Could you check what this test reported for CCO[C@H](Cc1ccc(OCCc2ccc(OS(C)(=O)=O)cc2)cc1)C(=O)O ?
label 0

Could you check what this test reported for C=CCOc1ccccc1OCC(O)CNC(C)C (centres undefined) ?
label 0

Could you check what this test reported for CCC(=O)O[C@]1(C(=O)CCl)[C@@H](C)C[C@H]2[C@@H]3CCC4=CC(=O)C=C[C@]4(C)[C@@]3(F)[C@@H](O)C[C@@]21C ?
label 0

Could you check what this test reported for CCOc1ccc(N=Nc2ccc(/C=C/c3ccc(N=Nc4ccc(OCC)cc4)cc3S(=O)(=O)O)c(S(=O)(=O)O)c2)cc1 ?
label 0

Could you check what this test reported for Cc1c(N)cccc1[N+](=O)[O-] ?
label 0

Could you check what this test reported for Nc1cccc([N+](=O)[O-])c1 ?
label 0

Could you check what this test reported for CC[N+](C)(CC)CCOC(=O)C(O)(c1ccccc1)C1CCCCC1 (centres undefined) ?
label 0

Could you check what this test reported for CC(=O)c1ccc2c(c1)N(CCCN1CCC(CCO)CC1)c1ccccc1S2 ?
label 1

Could you check what this test reported for Cc1ccc(N=Nc2c(O)c(C(=O)O)cc3ccccc23)c(S(=O)(=O)O)c1 ?
label 0

Could you check what this test reported for O=C(Nc1ccccc1)c1ccccc1O ?
label 0

Could you check what this test reported for Cc1nn(C)c(Oc2ccccc2)c1/C=N/OCc1ccc(C(=O)OC(C)(C)C)cc1 ?
label 0

Could you check what this test reported for CCCCC/C=C\C/C=C\CCCCCCCC(=O)NC(C)c1ccccc1 (centres undefined) ?
label 0

Could you check what this test reported for O=C1C(O)=C(O)C(=O)C(O)=C1O ?
label 0

Could you check what this test reported for O=P(O)(OCc1ccccc1)OCc1ccccc1 ?
label 0

Could you check what this test reported for CC(C)Cc1ccc(C(C)C(=O)OCc2ccccn2)cc1 (centres undefined) ?
label 0

Could you check what this test reported for CO[C@@H]1[C@H](OC(=O)/C=C/C=C/C=C/C=C/C(=O)O)CC[C@]2(CO2)[C@H]1[C@@]1(C)O[C@@H]1CC=C(C)C ?
label 1

Could you check what this test reported for OCCNCc1ccccc1 ?
label 0

Could you check what this test reported for O=[N+]([O-])c1ccc2[nH]ncc2c1 ?
label 0
